# Measurement target: IRAK4 (Homo sapiens)
# Assay text: 2-hour 1 mM ATP IRAK4 Biochemical assay (as above, but with 100 pM IRAK4 and 1 mM ATP)
# Assay context: IRAK4 MSD BIOCHEMICAL (1 mM ATP) IC50 (μM), 100 pM IRAK4, 2 hours
Where a name gives a salt, the structure may show the parent alone.
Result type: IC50 (µM)

The cases that follow already have their IC50 on record.
Compound: COc1ncccc1C(=O)Nc1cn2cc(C34COC(C)(C3)C4)nc2cc1OC(C)C(F)(F)F (single isomer, unassigned) [Example 318]
IC50, µM: 0.005
//
Compound: CC(C)Oc1cc2nc(C3CCOCC3)cn2cc1NC(=O)c1cccc(C2CCOC2)n1 (stereo not shown) [Example 380, hydrochloride]
IC50, µM: 0.002
//
Compound: CCOc1cc2nc(C3CCOCC3)cn2cc1NC(=O)c1cc(F)n(C)n1 [Example 210]
IC50, µM: 0.038

1. CC(C)Oc1cc(NC(=O)c2cccc(C(F)F)n2)cn2cc(C3CCOCC3)nc12 [Example 418, 2,2,2-trifluoroacetate]
2. CCOc1nc(NC(=O)c2cccc(OC)n2)cn2cc(C3CCOCC3)nc12 [Example 147]
Incoming: Returns: the argument ( 1 or 2 ) having the larger IC50. Indicate your choice by writing its label.
Outgoing: 2

P. COc1ncccc1C(=O)Nc1cn2cc(C34CCC(C)(C3)OC4)nc2c(OC)n1 (stereo not shown) [Example 468, 2,2,2-trifluoroacetate]
Q. O=C(Nc1cn2cc(C3CC3)nc2cc1OCC1CC1)c1cccc(C(F)F)n1 [Example 25]
Incoming: Returns: the argument ( P or Q ) having the larger IC50. Indicate your choice by writing its label.
Outgoing: P
(P: 0.022 µM, Q: 0.004 µM)

1. CCOc1cc2nc(C3CCOCC3)cn2cc1NC(=O)c1cccc(C)n1 [Example 224]
2. COc1nc(NC(=O)c2cccc(C(F)F)n2)cn2cc(C3COCCO3)nc12 (stereo not shown) [Example 278]
Incoming: When the recorded IC50 values are compared, which is smaller: that of 1 or that of 2 ? Indicate your choice by writing its label.
Outgoing: 1

a. O=C(Nc1cn2cc(C3CC3)nc2cc1OCC1CCC1)c1cccc(C(F)F)n1 [Example 5]
b. CCOc1cc2nc(C(C)(C)O)cn2cc1NC(=O)c1cccc(C(F)F)n1 [Example 100]
c. CC(C)Oc1nc2nc(C3CCOCC3)cn2cc1NC(=O)c1cccc2c1OCC2(F)F [Example 487]
d. COc1nc(NC(=O)c2cccc3ccnn23)cn2cc(C34CCC(C)(C3)OC4)nc12 (stereo not shown) [Example 470, 2,2,2-trifluoroacetate]
e. O=C(Nc1ccc2nc(C3CCOCC3)cn2c1)c1cccc(C(F)F)n1 [Example 356]
Incoming: Falling order of IC50, please. Returns: the labels arranged in the requested order.
Outgoing: e, b, d, a, c
(e: 0.033 µM, b: 0.011 µM, d: 0.006 µM, a: 0.003 µM, c: 0.001 µM)

* * *

# Measurement target: IRAK4 (Homo sapiens, UniProt Q9NWZ3)
# Assay text: 2-hour 1 mM ATP IRAK4 Biochemical assay (as above, but with 100 pM IRAK4 and 1 mM ATP)
# Assay context: IRAK4 MSD BIOCHEMICAL (1 mM ATP) IC50 (μM), 100 pM IRAK4, 2 hours
Result type: IC50 (µM)

Compound: CCOc1cc2nc(C3(F)CC3)cn2cc1NC(=O)c1cccc(C(F)F)n1
IC50 [µM]: 0.003

Compound: CCOc1cc(NC(=O)c2cccc(C(F)F)n2)cn2cc(C34COC(C)(C3)C4)nc12 [Example 414, 2,2,2-trifluoroacetate]
IC50 [µM]: 0.01

Compound: O=C(Nc1cn2cc(C3CC3)nc2cc1OCc1ccccc1)c1cccc(C(F)F)n1
IC50 [µM]: 0.01

I. CCOc1cc2nc(C3CC3)cn2cc1NC(=O)c1cccc(C(F)F)n1
II. CCOc1cc2nc(CC3CCCO3)cn2cc1NC(=O)c1cccc(C(F)(F)F)n1 (centres unmarked)
III. CCCOc1ncccc1C(=O)Nc1cn2cc(C3CCOCC3)nc2c(OC)n1
IV. CCOc1cc2nc(CC3CCOCC3)cn2cc1NC(=O)c1cccc(C(F)F)n1
V. COc1nc2nc(C3CCCOC3)cn2cc1NC(=O)c1cccc(C(F)F)n1 (centres unmarked)
Incoming: Rank the items in ascending order with respect to IC50. Returns: the labels arranged in the requested order.
Outgoing: IV, V, II, I, III
(IV: 0.002 µM, V: 0.004 µM, II: 0.006 µM, I: 0.009 µM, III: 0.025 µM)

* * *

# Measurement target: IRAK4 (Homo sapiens, UniProt Q9NWZ3)
# Sequence (Q9NWZ3 1-460): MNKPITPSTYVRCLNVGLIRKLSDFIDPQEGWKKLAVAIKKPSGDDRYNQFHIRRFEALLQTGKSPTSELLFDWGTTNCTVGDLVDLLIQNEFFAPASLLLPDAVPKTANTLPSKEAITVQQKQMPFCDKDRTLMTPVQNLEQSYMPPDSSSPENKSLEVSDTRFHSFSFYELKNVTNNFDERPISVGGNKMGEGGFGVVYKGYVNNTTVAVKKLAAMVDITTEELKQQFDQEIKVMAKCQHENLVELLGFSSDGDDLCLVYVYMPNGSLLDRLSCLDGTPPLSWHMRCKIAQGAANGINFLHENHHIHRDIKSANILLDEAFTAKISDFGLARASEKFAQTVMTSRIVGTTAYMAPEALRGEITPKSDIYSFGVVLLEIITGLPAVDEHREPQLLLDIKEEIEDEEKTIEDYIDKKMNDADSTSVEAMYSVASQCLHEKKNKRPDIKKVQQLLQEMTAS
# Assay text: 2-hour 10 μM ATP Biochemical Assay (MesoScale Detection format; IRAK4 phosphorylation of biotin labeled IRAK1 activation loop peptide)
# Assay context: IRAK4 MSD BIOCHEMICAL (10 μM ATP) IC50 (μM), 1 nM IRAK4, 2 hours
Result type: IC50 (µM)

Compound: CCOc1cc2nc(C3CCNC3)cn2cc1NC(=O)c1cccc(C(F)(F)F)n1 (stereo not shown)
Measurement target: IRAK4 (Homo sapiens, UniProt Q9NWZ3)
Uom: µM
IC50: 0.001
--
Compound: CCOc1cc2nc(C3CCOCC3)cn2cc1NC(=O)c1ccccc1F
Measurement target: IRAK4 (Homo sapiens, UniProt Q9NWZ3)
Uom: µM
IC50: 0.022
--
Compound: COc1cc(NC(=O)c2cccc(C(F)F)n2)cn2cc(C34COC(C)(C3)C4)nc12 [Example 508, 2,2,2-trifluoroacetate]
Measurement target: IRAK4 (Homo sapiens, UniProt Q9NWZ3)
Uom: µM
IC50: 0.002
--
Compound: COc1cc(NC(=O)c2cccc(C(F)F)n2)cn2cc(C3CC4(CCOC4)C3)nc12 (stereo not shown)
Measurement target: IRAK4 (Homo sapiens, UniProt Q9NWZ3)
Uom: µM
IC50: 0.002
--
Compound: CCOc1cc2nc(C3CNC3)cn2cc1NC(=O)c1cccc(C(F)(F)F)n1
Measurement target: IRAK4 (Homo sapiens, UniProt Q9NWZ3)
Uom: µM
IC50: 0.001
--
Compound: CCOc1cc2nc(Cn3cncn3)cn2cc1NC(=O)c1cccc(C(F)F)n1
Measurement target: IRAK4 (Homo sapiens, UniProt Q9NWZ3)
Uom: µM
IC50: 0.001
--
Compound: CCOc1cc2nc(C(F)(F)CCOC)cn2cc1NC(=O)c1cccc(C(F)F)n1
Measurement target: IRAK4 (Homo sapiens, UniProt Q9NWZ3)
Uom: µM
IC50: 0.002
--
Compound: CCOc1cc2nc(C3CCOCC3)cn2cc1NC(=O)c1cccc(OC2CC2)n1
Measurement target: IRAK4 (Homo sapiens, UniProt Q9NWZ3)
Uom: µM
IC50: 0.002

A. CCOc1cc2nc([C@H](F)[C@H]3CCOC3)cn2cc1NC(=O)c1cccc(C(F)(F)F)n1 (single isomer, unassigned)
B. CCOc1cc2nc(CC)cn2cc1NC(=O)c1ccc(F)cc1F
C. CCOc1cc2nc(CC)cn2cc1NC(=O)c1ccc2c(c1)COC2
Incoming: Falling order of IC50, please. Returns: the labels arranged in the requested order.
Outgoing: C, B, A

P. CCOc1cc2nc(CC3CCOC3)cn2cc1NC(=O)c1ccn(CC(F)(F)F)n1 (stereo not shown)
Q. CCOc1cc2nc(CC)cn2cc1NC(=O)c1ccc(F)c(F)c1
Incoming: When the recorded IC50 values are compared, which is smaller: that of P or that of Q ? Indicate your choice by writing its label.
Outgoing: P
(P: 0.008 µM, Q: 2.5 µM)

* * *

# Measurement target: UniProtKB Q9NWZ3
# Assay text: 2-hour 10 μM ATP Biochemical Assay (MesoScale Detection format; IRAK4 phosphorylation of biotin labeled IRAK1 activation loop peptide)
# Assay context: IRAK4 MSD BIOCHEMICAL (10 μM ATP) IC50 (μM), 1 nM IRAK4, 2 hours
Result type: IC50 (µM)

Molecule: CCOc1cc2nc(C3CCCOC3)cn2cc1NC(=O)c1cccc(C(F)(F)F)n1 (centres unmarked)
Uom: µM
IC50: 0.001
--
Molecule: CCOc1cc2nc(C3CCOCC3)cn2cc1NC(=O)c1cccc(OC)n1
Uom: µM
IC50: 0.002

A. CCOc1cc2nc(CF)cn2cc1NC(=O)c1cccc(C(F)(F)F)n1
B. COc1nc(NC(=O)c2cccc3c2OCC3)cn2cc(C3CCOCC3)nc12
C. CCOc1cc2nc(C3CCOCC3)cn2cc1NC(=O)c1ccn2c1CCC2
Incoming: Falling order of IC50, please. Returns: the labels arranged in the requested order.
Outgoing: C, B, A
